System: 755483-174-R-J1-PDC complex spheroid growth, percent test/control;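 note: spheroids exposed to compounds for seven days before readout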
Assay: Anticancer human tumor 755483-174-R-J1-PDC patient-derived rhabdomyosarcoma cell line growth inhibition [Asc]
Details: curve of first compound; second compound 1 µM
pIC50: −log10 of the molar value.
assay_metric: pIC50

>  <molecule>
Cn1ncnc1[C@H]1c2n[nH]c(=O)c3cc(F)cc(c23)N[C@@H]1c1ccc(F)cc1 + Cc1c(S(C)(=O)=O)c(-c2cc(F)cc(N3CCN(c4ccc(NS(=O)(=O)c5ccc(NC(CCN6CCC(C(=O)OCCCP(=O)(O)O)CC6)CSc6ccccc6)c(S(=O)(=O)C(F)(F)F)c5)cc4)CC3)c2)c(-c2ccc(Cl)cc2)n1C(C)C

>  <target_or_test_system>
755483-174-R-J1-PDC complex spheroid growth, percent test/control;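 note: spheroids exposed to compounds for seven days before readout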

>  <result>
> 9.50

$$$$
>  <molecule>
Cc1nc(N2CCC3(CC2)COC(C)C3N)c(CO)nc1Sc1ccnc(N)c1Cl (centres undefined) + Cc1c(S(C)(=O)=O)c(-c2cc(F)cc(N3CCN(c4ccc(NS(=O)(=O)c5ccc(NC(CCN6CCC(C(=O)OCCCP(=O)(O)O)CC6)CSc6ccccc6)c(S(=O)(=O)C(F)(F)F)c5)cc4)CC3)c2)c(-c2ccc(Cl)cc2)n1C(C)C

>  <target_or_test_system>
755483-174-R-J1-PDC complex spheroid growth, percent test/control;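 note: spheroids exposed to compounds for seven days before readout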

>  <result>
> 8.02

$$$$
>  <molecule>
NC1CCC(NC2CC2c2ccccc2)CC1 (centres undefined) + Cc1c(S(C)(=O)=O)c(-c2cc(F)cc(N3CCN(c4ccc(NS(=O)(=O)c5ccc(NC(CCN6CCC(C(=O)OCCCP(=O)(O)O)CC6)CSc6ccccc6)c(S(=O)(=O)C(F)(F)F)c5)cc4)CC3)c2)c(-c2ccc(Cl)cc2)n1C(C)C

>  <target_or_test_system>
755483-174-R-J1-PDC complex spheroid growth, percent test/control;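 note: spheroids exposed to compounds for seven days before readout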

>  <result>
> 9.50

$$$$
>  <molecule>
C=CC(=O)N1CCN(c2nc(=O)n(-c3c(C)ccnc3C(C)C)c3nc(-c4c(O)cccc4F)c(F)cc23)C(C)C1 (centres undefined) + CNC(C)C(=O)NC1CN(S(=O)(=O)c2cccc(S(=O)(=O)N3CCC4CCC(C(=O)NC(c5ccccc5)c5ccccc5)N4C(=O)C(NC(=O)C(C)NC)C3)c2)CCC2CCC(C(=O)NC(c3ccccc3)c3ccccc3)N2C1=O

>  <target_or_test_system>
755483-174-R-J1-PDC complex spheroid growth, percent test/control;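 note: spheroids exposed to compounds for seven days before readout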

>  <result>
> 7.50

$$$$

Data origin: PubChem BioAssay AID1963434
